Where do the numbers come from? From patent US20100311714A1.

# PROTOCOL NOTES: Parallel Artificial Membrane Permeability Assay (PAMPA) at pH 6.8
# Assay type: physicochemical
# Procedure: The physicochemical properties of relevance for the absorption of the compound, such as the solubility and the membrane permeability, especially at a pH close to neutral pH can be measured using the procedure as described by L. ZHOU et al. in JOURNAL OF PHARMACEUTICAL SCIENCES, VOL. 96, NO. 11, p. […] The following permeability log Pe was measured for compound of formula (I) as exemplified below: […]
READOUT: HT-perm/logPe pH6.8

Guide cases for HT-perm/logPe pH6.8, answers given:
{"columns": ["MOLECULE", "VALUE MEASURED"],
 "data": [
  ["CCOc1ccc(-c2ccc3ncc4c(c3c2)n(-c2cccnc2C)c(=O)n4C)cn1 [Example 2.1]", "−3.7"],
  ["CCOc1ccc(-c2ccc3ncc4c(c3c2)n(-c2ccc(OC)nc2C)c(=O)n4C)cn1 [Example 11.1]", "−3.8"],
  ["CCOc1ccc(-c2ccc3ncc4c(c3c2)n(-c2cccnc2OC)c(=O)n4C)cn1 [Example 1.5]", "−3.6"],
  ["Cc1nc(F)ccc1-n1c(=O)n(C)c2cnc3ccc(-c4cnc5c(ccn5C)c4)cc3c21 [Example 7.2]", "−3.7"],
  ["COc1ncccc1-n1c(=O)n(C)c2cnc3ccc(-c4ccc(F)nc4)cc3c21 [Example 1.8]", "−3.7"]
]}

Fill in HT-perm/logPe pH6.8 for record CCOc1ccc(-c2ccc3ncc4c(c3c2)n(-c2ccc(F)nc2C)c(=O)n4C)cn1 [Example 7.3]
−3.7

Given Cc1cccnc1-n1c(=O)n(C)c2cnc3ccc(-c4cnc(N)c(C(F)(F)F)c4)cc3c21 [Example 3.12] , respond with its HT-perm/logPe pH6.8.
−4.0

Report HT-perm/logPe pH6.8 for COc1ccc(-n2c(=O)n(C)c3cnc4ccc(-c5cnc(N)c(C(F)(F)F)c5)cc4c32)c(OC)n1 [Example 8.1]
−4.1

====

# System: PKB Ser473 phosphorylation in Rat1-myr-HA-p110 beta cells
# PROTOCOL NOTES: Reverse protein array, PKB Ser473 phosphorylation in Rat1-myr-HA-p110 beta cells
# Type: cell-based
# RECORDED CONDITIONS: Rattus norvegicus, 0.5 h, 30 minutes compound incubation, read-out: p-PKB/IC50_beta
pIC50: −log10 of the molar value.
I would appreciate it if you labelled entries condition met when pIC50 is 7 or higher, otherwise condition not met.

Known results for compounds:
{"columns": ["COMPOUND", "TARGET OR TEST SYSTEM", "LABEL VALUE"],
 "data": [
  ["COc1nc(N2CCNCC2)ccc1-n1c(=O)n(C)c2cnc3ccc(-c4cnc(N(C)C)nc4)cc3c21", "PKB Ser473 phosphorylation in Rat1-myr-HA-p110 beta cells", "condition met"],
  ["Cc1nc(N2CC(O)C2)ccc1-n1c(=O)n(C)c2cnc3ccc(-c4cncc(C(C)(C)O)c4)cc3c21", "PKB Ser473 phosphorylation in Rat1-myr-HA-p110 beta cells", "condition not met"],
  ["Cc1nc(C(F)(F)F)ccc1-n1c(=O)n(C)c2cnc3ccc(-c4cncc(C(C)(C)O)c4)cc3c21", "PKB Ser473 phosphorylation in Rat1-myr-HA-p110 beta cells", "condition met"],
  ["Cn1c(=O)n(-c2cccnc2F)c2c3cc(-c4cnc(N)c(C(F)(F)F)c4)ccc3ncc21", "PKB Ser473 phosphorylation in Rat1-myr-HA-p110 beta cells", "condition met"],
  ["CCNc1ncc(-c2ccc3ncc4c(c3c2)n(-c2ccc(N3CC[C@@H](O)C3)nc2C)c(=O)n4C)cc1C(F)(F)F", "PKB Ser473 phosphorylation in Rat1-myr-HA-p110 beta cells", "condition met"],
  ["Cc1ccc(-n2c(=O)n(C)c3cnc4ccc(-c5cnc6c(ccn6C)c5)cc4c32)c(C)n1", "PKB Ser473 phosphorylation in Rat1-myr-HA-p110 beta cells", "condition met"]
]}

Dear colleague, could you confirm whether "COc1ncccc1-n1c(=O)n(C)c2cnc3ccc(-c4ccc(F)nc4)cc3c21" has pIC50 at or above 7?
condition not met

Could you tell me if the measured pIC50 of "CNc1ncc(-c2ccc3ncc4c(c3c2)n(-c2ccc(F)nc2C)c(=O)n4C)cc1C(F)(F)F" reaches 7 or more?
condition met

Check this compound for pIC50 at or above 7: "COCCOc1ccc(-n2c(=O)n(C)c3cnc4ccc(-c5cncc(N6CCC6)c5)cc4c32)c(C)n1"
condition met

API: above_or_equal(metric=pIC50, cutoff=7) for item "Cc1nc(N2CCC2)ccc1-n1c(=O)n(C)c2cnc3ccc(-c4cncc(N5CCC5)c4)cc3c21"
condition met

Please tell me: is the compound "COc1nc(N2CCNCC2)ccc1-n1c(=O)n(C)c2cnc3ccc(-c4cnc5c(ccn5C)c4)cc3c21" at or over 7 in terms of pIC50?
condition met

Determine whether this compound has pIC50 no lower than 7: "CNc1cncc(-c2ccc3ncc4c(c3c2)n(-c2cccnc2C)c(=O)n4C)c1"
condition met

====

# System: S6 Ribosomal Protein phosphorylation Ser235/236 in TSC1 null mouse embryo fibroblast (MEF) cells
# PROTOCOL NOTES: Reverse protein array, S6 Ribosomal Protein phosphorylation in TSC1 null MEF cells
# Format: cell-based
# RECORDED CONDITIONS: 1 h, TSC1-/- MEFs, 60 minutes, read-out: p-S6 IC50
pIC50: −log10 of the molar value.
# pIC50 >= 8 gives satisfied, anything below gives not satisfied

// below: answered molecules
{"columns": ["MOLECULE", "LABEL VALUE"],
 "data": [
  ["CCOc1cc(-c2ccc3ncc4c(c3c2)n(-c2ccc(F)nc2C)c(=O)n4C)cnc1COC", "not satisfied"],
  ["COc1ncc(-c2ccc3ncc4c(c3c2)n(-c2ccc(N3CC[C@H](O)C3)nc2C)c(=O)n4C)c(OC)n1", "satisfied"],
  ["Cc1nc(N2CCCC2)ccc1-n1c(=O)n(C)c2cnc3ccc(-c4cncc(C(C)(C)O)c4)cc3c21", "satisfied"],
  ["CNc1ncc(-c2ccc3ncc4c(c3c2)n(-c2ccc(N3CCC(O)C3)nc2C)c(=O)n4C)cn1 (stereo not drawn)", "satisfied"],
  ["COCc1ncc(-c2ccc3ncc4c(c3c2)n(-c2cccnc2C)c(=O)n4C)cc1OC", "not satisfied"],
  ["CCNc1cc(-c2ccc3ncc4c(c3c2)n(-c2ccc(N3CC(F)(F)C(F)(F)C3)nc2C)c(=O)n4C)cnc1CO", "satisfied"],
  ["Cc1nc(F)ccc1-n1c(=O)n(C)c2cnc3ccc(-c4cnc(N)c(CO)c4)cc3c21", "satisfied"],
  ["CNc1ncc(-c2ccc3ncc4c(c3c2)n(-c2ccc(N3CC[C@H](O)C3)nc2C)c(=O)n4C)cc1C(F)(F)F", "satisfied"]
]}

API: the following record is the query input.
Entry "CNc1ncc(-c2ccc3ncc4c(c3c2)n(-c2ccc(N3CC[C@H](O)C3)nc2C)c(=O)n4C)cc1Cl" : is its pIC50 no less than 8?
satisfied

====

# TARGET OR TEST SYSTEM: PI3K beta (Homo sapiens, UniProt P42338)
# Construct: for the full-length p110-b subunit are generated and fused by overlapping PCR; His tag (C); made in house; host or cells: baculovirus BV949; Tn5 (Trichoplusia ni) or TiniPro insect cells
# Sequence (P42338 with tags, fused parts or gaps limits assumed): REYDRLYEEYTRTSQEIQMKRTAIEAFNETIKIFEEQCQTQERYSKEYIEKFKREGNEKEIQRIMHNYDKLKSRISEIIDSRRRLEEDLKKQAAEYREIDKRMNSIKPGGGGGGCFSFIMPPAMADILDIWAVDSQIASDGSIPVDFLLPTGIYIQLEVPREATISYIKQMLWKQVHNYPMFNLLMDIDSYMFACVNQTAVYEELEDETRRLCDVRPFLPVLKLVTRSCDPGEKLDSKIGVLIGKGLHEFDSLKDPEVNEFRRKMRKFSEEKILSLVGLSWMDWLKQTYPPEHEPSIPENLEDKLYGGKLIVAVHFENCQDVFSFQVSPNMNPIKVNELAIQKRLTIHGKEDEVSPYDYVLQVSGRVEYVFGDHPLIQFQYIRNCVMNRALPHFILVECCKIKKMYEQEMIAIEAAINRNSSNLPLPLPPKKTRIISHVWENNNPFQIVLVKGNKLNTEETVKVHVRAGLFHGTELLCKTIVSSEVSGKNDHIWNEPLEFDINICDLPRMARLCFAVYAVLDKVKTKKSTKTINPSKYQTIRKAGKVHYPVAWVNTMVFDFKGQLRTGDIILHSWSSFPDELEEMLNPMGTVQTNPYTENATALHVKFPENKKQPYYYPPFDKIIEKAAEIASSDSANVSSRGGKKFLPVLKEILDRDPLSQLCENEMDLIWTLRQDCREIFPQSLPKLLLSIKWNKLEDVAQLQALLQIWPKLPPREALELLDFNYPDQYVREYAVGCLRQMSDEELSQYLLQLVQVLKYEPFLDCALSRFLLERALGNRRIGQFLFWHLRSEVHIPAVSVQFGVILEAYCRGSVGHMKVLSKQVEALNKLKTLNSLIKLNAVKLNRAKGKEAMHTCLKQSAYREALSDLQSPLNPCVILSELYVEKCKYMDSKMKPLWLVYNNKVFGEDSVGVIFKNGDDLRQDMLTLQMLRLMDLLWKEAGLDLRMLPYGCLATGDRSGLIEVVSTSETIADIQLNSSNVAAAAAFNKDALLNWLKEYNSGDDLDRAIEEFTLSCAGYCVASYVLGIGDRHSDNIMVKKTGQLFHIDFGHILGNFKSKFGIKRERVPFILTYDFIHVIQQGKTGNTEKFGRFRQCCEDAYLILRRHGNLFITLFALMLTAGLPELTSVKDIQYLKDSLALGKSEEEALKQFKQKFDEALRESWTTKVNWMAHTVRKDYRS
# PROTOCOL NOTES: PI3K beta kinase assay (Kinase-Glo luminescence)
# Format: biochemical
# RECORDED CONDITIONS: read-out: EPK_PI3Kbeta/IC50
# Description: In a more preferred assay, the kinase reaction is performed in a final volume of 10 μL per well of a low volume non binding CORNING, 384 well black plate (Cat. No. #3676). The final concentrations of ATP and phosphatidyl inositol (PI) in the assay are 1 μM and 10 μg/mL respectively. […] IC50 is determined by a four parameter curve fitting routine that comes along with “excel fit”. […] Alternatively, IC50 values are calculated using idbsXLfit model 204, which is a 4 parameter logistic model.
READOUT: pIC50
// pIC50 is dimensionless: -log10 of concentration (M)

{"columns": ["COMPOUND", "TARGET OR TEST SYSTEM", "VALUE MEASURED"],
 "data": [
  ["COCCN(C)c1ccc(-n2c(=O)n(C)c3cnc4ccc(-c5cnc(N)c(C(F)(F)F)c5)cc4c32)c(C)n1", "PI3K beta (Homo sapiens, UniProt P42338)", 7.82],
  ["COc1cc(-c2ccc3ncc4c(c3c2)n(-c2ccc(N3CCCC3)nc2C)c(=O)n4C)cnc1CO", "PI3K beta (Homo sapiens, UniProt P42338)", 6.57],
  ["CCNc1cc(-c2ccc3ncc4c(c3c2)n(-c2ccc(N(C)CC)nc2C)c(=O)n4C)cnc1C", "PI3K beta (Homo sapiens, UniProt P42338)", 7.31],
  ["CCN(C)c1ccc(-n2c(=O)n(C)c3cnc4ccc(-c5ccc(NC)nc5)cc4c32)c(C)n1", "PI3K beta (Homo sapiens, UniProt P42338)", 6.81],
  ["CCNc1cc(-c2ccc3ncc4c(c3c2)n(-c2ccc(OCCOC)nc2C)c(=O)n4C)cnc1C", "PI3K beta (Homo sapiens, UniProt P42338)", 7.21]
]}

Note: attention shifts to another entry.
Write down measured pIC50 (PI3K beta (Homo sapiens, UniProt P42338)) for this compound. "CNc1cc(-c2ccc3ncc4c(c3c2)n(-c2ccc(C(F)(F)F)nc2C)c(=O)n4C)cnc1CO"
7.42
